# ASSAY_PROCEDURE: Clearance in Sprague-Dawley rat after 30 mins
# Format: ADME, organism-based
# MEASUREMENT_CONTEXT: in vivo
REPORTED_ENDPOINT: clearance (mL/min/kg)

STRUCTURE | clearance / mL/min/kg
NS(=O)(=O)c1ccc(CNc2nc(NCC(F)(F)F)c3nc(-c4ccc(F)cc4)ccc3n2)cc1 | 5

(P) N#CC1(Nc2nc(NCc3ccc(S(N)(=O)=O)cc3)nc3ccc(-c4ccc(F)nc4)nc23)CC1
(Q) NS(=O)(=O)c1ccc(CNc2nc(NCC(F)(F)F)c3nc(-c4ccc(F)nc4)ccc3n2)cc1
(R) NS(=O)(=O)c1cc(Cl)cc(CNc2nc(NC3(C(F)(F)F)CC3)c3nc(-c4ccc(F)cc4)ccc3n2)c1
Hey, can you sort those molecules up there by clearance, smallest first? Quick reminder: the answer is the labels in the order asked.
Q, R, P
(Q: 3.33 mL/min/kg, R: 6.67 mL/min/kg, P: 15 mL/min/kg)
